target: Carbonic anhydrase 2 (Homo sapiens)
Attribute: pKi
pKi here is simply -log10 of the concentration when that concentration is written in mol/L.

Example entries begin here.
| Molecule smiles | Parameter measured | Test value |
| --- | --- | --- |
| C[C@H](CCC(=O)Nc1ccc(S(N)(=O)=O)cc1Cl)[C@H]1CC[C@H]2[C@@H]3CC[C@@H]4C[C@H](O)CC[C@]4(C)[C@H]3C[C@H](O)[C@]12C | pKi | 7.11 |
| C[C@H](CCC(=O)NCc1ccc(S(N)(=O)=O)cc1)[C@H]1CC[C@H]2[C@@H]3CC[C@@H]4C[C@H](O)CC[C@]4(C)[C@H]3CC[C@]12C | pKi | 7.32 |
| C[C@H](CCC(=O)OCCOc1ccc2nc(S(N)(=O)=O)sc2c1)[C@H]1CC[C@H]2[C@@H]3[C@H](O)C[C@@H]4C[C@H](O)CC[C@]4(C)[C@H]3C[C@H](O)[C@]12C | pKi | 8.52 |
| C[C@H](CCC(=O)Nc1ccc(S(N)(=O)=O)cc1)[C@H]1CC[C@H]2[C@@H]3CC[C@@H]4C[C@H](O)CC[C@]4(C)[C@H]3CC[C@]12C | pKi | 6.97 |
| C[C@H](CCC(=O)Nc1nnc(S(N)(=O)=O)s1)[C@H]1CC[C@H]2[C@@H]3C(=O)C[C@@H]4CC(=O)CC[C@]4(C)[C@H]3CC(=O)[C@]12C | pKi | 9.30 |

[in] Give pKi (Carbonic anhydrase 2 (Homo sapiens)) of the following molecule: "C[C@H](CCC(=O)/N=c1\sc(S(N)(=O)=O)nn1C)[C@H]1CC[C@H]2[C@@H]3CC[C@@H]4C[C@H](O)CC[C@]4(C)[C@H]3CC[C@]12C"
[out] 8.10

[in] Please tell me: pKi of "C[C@H](CCC(=O)NNc1ccc(S(N)(=O)=O)cc1)[C@H]1CC[C@H]2[C@@H]3CC[C@@H]4C[C@H](O)CC[C@]4(C)[C@H]3C[C@H](O)[C@]12C" , system Carbonic anhydrase 2 (Homo sapiens)?
[out] 6.51

[in] Under Carbonic anhydrase 2 (Homo sapiens): pKi value of "C[C@H](CCC(=O)NNc1ccc(S(N)(=O)=O)cc1)[C@H]1CC[C@H]2[C@@H]3[C@H](O)C[C@@H]4C[C@H](O)CC[C@]4(C)[C@H]3C[C@H](O)[C@]12C" ?
[out] 6.50

[in] // lookup pKi | system=Carbonic anhydrase 2 (Homo sapiens) | key= "C[C@H](CCC(=O)NNc1ccc(S(N)(=O)=O)cc1)[C@H]1CC[C@H]2[C@@H]3[C@@H](O)C[C@@H]4C[C@H](O)CC[C@]4(C)[C@H]3CC[C@]12C"
[out] 6.62

[in] Any idea what pKi came out for "C[C@H](CCC(=O)Nc1ccc(S(N)(=O)=O)cc1Cl)[C@H]1CC[C@H]2[C@@H]3C(=O)C[C@@H]4CC(=O)CC[C@]4(C)[C@H]3CC(=O)[C@]12C" on Carbonic anhydrase 2 (Homo sapiens)?
[out] 7.89

[in] Hi! What's the reported pKi for "C[C@H](CCC(=O)Nc1ccc2nc(S(N)(=O)=O)sc2c1)[C@H]1CC[C@H]2[C@@H]3CC[C@@H]4C[C@H](O)CC[C@]4(C)[C@H]3CC[C@]12C" on Carbonic anhydrase 2 (Homo sapiens)?
[out] 8.55

[in] Provide value of pKi for this record tested with Carbonic anhydrase 2 (Homo sapiens): "C[C@H](CCC(=O)OCc1ccc(S(N)(=O)=O)cc1)[C@H]1CC[C@H]2[C@@H]3[C@@H](O)C[C@@H]4C[C@H](O)CC[C@]4(C)[C@H]3CC[C@]12C"
[out] 7.12

[in] What is its pKi for Carbonic anhydrase 2 (Homo sapiens)? Entry: "C[C@H](CCC(=O)Nc1cc(Cl)c(S(N)(=O)=O)cc1S(N)(=O)=O)[C@H]1CC[C@H]2[C@@H]3[C@H](O)C[C@@H]4C[C@H](O)CC[C@]4(C)[C@H]3CC[C@]12C"
[out] 7.21

[in] Lab request: please report pKi under test system Carbonic anhydrase 2 (Homo sapiens) for "C[C@H](CCC(=O)Oc1ccc2nc(S(N)(=O)=O)sc2c1)[C@H]1CC[C@H]2[C@@H]3CC[C@@H]4C[C@H](O)CC[C@]4(C)[C@H]3CC[C@]12C"
[out] 8.70

[in] Give the reported pKi for "C[C@H](CCC(=O)NNc1ccc(S(N)(=O)=O)cc1)[C@H]1CC[C@H]2[C@@H]3[C@H](O)C[C@@H]4C[C@H](O)CC[C@]4(C)[C@H]3CC[C@]12C" (system: Carbonic anhydrase 2 (Homo sapiens)).
[out] 6.53

[in] Record lookup: for Carbonic anhydrase 2 (Homo sapiens), what pKi belongs to "C[C@H](CCC(=O)NNc1ccc(S(N)(=O)=O)cc1)[C@H]1CC[C@H]2[C@@H]3C(=O)C[C@@H]4CC(=O)CC[C@]4(C)[C@H]3CC(=O)[C@]12C" ?
[out] 6.59

[in] Please provide the recorded pKi for "C[C@H](CCC(=O)Nc1ccc(S(N)(=O)=O)cc1F)[C@H]1CC[C@H]2[C@@H]3CC[C@@H]4C[C@H](O)CC[C@]4(C)[C@H]3CC[C@]12C" , tested on Carbonic anhydrase 2 (Homo sapiens).
[out] 7.54

----------
target: Carbonic anhydrase 2 (Homo sapiens)
pKi: −log10 of the molar value.
Category scheme (pKi): low = under 7, mid = from 7 up to 8, high = 8 and over

These solved cases illustrate the format of a correct answer.
| Molecule smiles | Assigned class |
| --- | --- |
| C[C@H](CCC(=O)Nc1cccc(S(N)(=O)=O)c1)[C@H]1CC[C@H]2[C@@H]3[C@H](O)C[C@@H]4C[C@H](O)CC[C@]4(C)[C@H]3CC[C@]12C | low |
| C[C@H](CCC(=O)NCCC(=O)Nc1nnc(S(N)(=O)=O)s1)[C@H]1CC[C@H]2[C@@H]3C(=O)C[C@@H]4CC(=O)CC[C@]4(C)[C@H]3CC(=O)[C@]12C | high |
| C[C@H](CCC(=O)Nc1ccc(S(N)(=O)=O)cc1I)[C@H]1CC[C@H]2[C@@H]3CC[C@@H]4C[C@H](O)CC[C@]4(C)[C@H]3CC[C@]12C | mid |
| C[C@H](CCC(=O)Nc1ccc(S(N)(=O)=O)cc1F)[C@H]1CC[C@H]2[C@@H]3[C@H](O)C[C@@H]4C[C@H](O)CC[C@]4(C)[C@H]3C[C@H](O)[C@]12C | mid |
| C[C@H](CCC(=O)Nc1cc(Cl)c(S(N)(=O)=O)cc1S(N)(=O)=O)[C@H]1CC[C@H]2[C@@H]3CC[C@@H]4C[C@H](O)CC[C@]4(C)[C@H]3CC[C@]12C | mid |
| C[C@H](CCC(=O)Oc1ccc2nc(S(N)(=O)=O)sc2c1)[C@H]1CC[C@H]2[C@@H]3C(=O)C[C@@H]4CC(=O)CC[C@]4(C)[C@H]3CC(=O)[C@]12C | high |

Lab note: next molecule to report on.
[in] Record "C[C@H](CCC(=O)Nc1cccc(S(N)(=O)=O)c1)[C@H]1CC[C@H]2[C@@H]3CC[C@@H]4C[C@H](O)CC[C@]4(C)[C@H]3C[C@H](O)[C@]12C" — which class?
[out] low

----------
target: Carbonic anhydrase 4 (Bos taurus)
Parameter measured: pKi
# log scale: pKi equals minus log10 of the concentration in mol/L

Past entries and their recorded results:
| Molecule smiles | pKi |
| --- | --- |
| C[C@H](CCC(=O)OCCc1ccc(S(N)(=O)=O)cc1)[C@H]1CC[C@H]2[C@@H]3[C@H](O)C[C@@H]4C[C@H](O)CC[C@]4(C)[C@H]3CC[C@]12C | 6.49 |
| C[C@H](CCC(=O)Nc1nnc(S(N)(=O)=O)s1)[C@H]1CC[C@H]2[C@@H]3CC[C@@H]4C[C@H](O)CC[C@]4(C)[C@H]3C[C@H](O)[C@]12C | 6.89 |
| C[C@H](CCC(=O)Nc1cc(Cl)c(S(N)(=O)=O)cc1S(N)(=O)=O)[C@H]1CC[C@H]2[C@@H]3[C@@H](O)C[C@@H]4C[C@H](O)CC[C@]4(C)[C@H]3CC[C@]12C | 7.34 |
| C[C@H](CCC(=O)Nc1cc(Cl)c(S(N)(=O)=O)cc1S(N)(=O)=O)[C@H]1CC[C@H]2[C@@H]3C(=O)C[C@@H]4CC(=O)CC[C@]4(C)[C@H]3CC(=O)[C@]12C | 7.30 |

# next molecule below
[in] # lookup: pKi of "C[C@H](CCC(=O)NCCC(=O)Nc1nnc(S(N)(=O)=O)s1)[C@H]1CC[C@H]2[C@@H]3[C@H](O)C[C@@H]4C[C@H](O)CC[C@]4(C)[C@H]3CC[C@]12C"
[out] 7.35

----------
# Lookup of reported pKi keyed by entry
Target: UniProt Q95323
Sequence (Q95323 whole entry): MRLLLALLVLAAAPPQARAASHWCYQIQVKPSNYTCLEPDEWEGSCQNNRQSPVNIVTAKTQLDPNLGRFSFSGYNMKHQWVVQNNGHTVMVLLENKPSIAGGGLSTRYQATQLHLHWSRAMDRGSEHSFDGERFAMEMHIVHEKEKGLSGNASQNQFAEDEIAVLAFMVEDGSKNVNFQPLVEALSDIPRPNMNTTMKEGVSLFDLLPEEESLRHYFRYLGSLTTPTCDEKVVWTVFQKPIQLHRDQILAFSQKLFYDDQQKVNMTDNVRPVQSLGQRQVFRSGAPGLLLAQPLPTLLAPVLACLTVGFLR
# pKi = -log10(concentration in molar units)

Please review the entries below; each comes with its answer.
| Molecule smiles | Measured target | Test value |
| --- | --- | --- |
| C[C@H](CCC(=O)Nc1ccc(S(N)(=O)=O)cc1Br)[C@H]1CC[C@H]2[C@@H]3[C@H](O)C[C@@H]4C[C@H](O)CC[C@]4(C)[C@H]3CC[C@]12C | UniProt Q95323 | 7.28 |
| C[C@H](CCC(=O)NCc1ccc(S(N)(=O)=O)cc1)[C@H]1CC[C@H]2[C@@H]3[C@H](O)C[C@@H]4C[C@H](O)CC[C@]4(C)[C@H]3C[C@H](O)[C@]12C | UniProt Q95323 | 6.60 |

API: the following record is the query input.
[in] # input molecule: "C[C@H](CCC(=O)Nc1ccc(S(N)(=O)=O)cc1)[C@H]1CC[C@H]2[C@@H]3CC[C@@H]4C[C@H](O)CC[C@]4(C)[C@H]3C[C@H](O)[C@]12C" ; wanted: its pKi
[out] 6.45
